Exercise: for every item that follows, state its recorded abundance fitness.
B1: Membrane-associated guanylate kinase, WW and PDZ domain-containing protein 1, residues 352 to 401; numbered along this chain, Q96QZ7 (parent)
chain: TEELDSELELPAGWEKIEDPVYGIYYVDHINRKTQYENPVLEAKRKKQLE

# Variants of: B1
# EXPERIMENT DESCRIPTION: abundance fitness (aPCA) (normalised: wild type 0, dead -1); higher = more abundant; growth selection in yeast, the domain comes from the species named
# REPORTED CONDITIONS: Homo sapiens
When you answer, write just the number.

Entry under test: `K47N` . Its abundance fitness was -0.318

Entry under test: `E7F` . Its abundance fitness was -0.236

Entry under test: `N31Y` . Its abundance fitness was -0.671

Entry under test: `R32P` . Its abundance fitness was -0.564

Entry under test: `E18P` . Its abundance fitness was -0.549

Entry under test: `E18N` . Its abundance fitness was -0.03

Entry under test: `L41M` . Its abundance fitness was 0.03

Entry under test: `K44W` . Its abundance fitness was -0.237

Entry under test: `N38R` . Its abundance fitness was -0.079

Entry under test: `E18S` . Its abundance fitness was -0.33

Entry under test: `S6T` . Its abundance fitness was 0.142

Entry under test: `E42Q` . Its abundance fitness was -0.222

Entry under test: `D28Q` . Its abundance fitness was -0.934

Entry under test: `V27I` . Its abundance fitness was -0.178

Entry under test: `A12G` . Its abundance fitness was -0.073

Entry under test: `T34I` . Its abundance fitness was -0.502

Entry under test: `N38S` . Its abundance fitness was -0.066

Entry under test: `K33P` . Its abundance fitness was -0.815

Entry under test: `L10W` . Its abundance fitness was -0.553

Entry under test: `V21R` . Its abundance fitness was -0.012

Entry under test: `A12Q` . Its abundance fitness was -0.237

Entry under test: `S6A` . Its abundance fitness was -0.033
